# System: HGFR (Homo sapiens, UniProt P08581)
# Construct: purchased Upstate 14-526
# Sequence (P08581 974-1390 limits assumed): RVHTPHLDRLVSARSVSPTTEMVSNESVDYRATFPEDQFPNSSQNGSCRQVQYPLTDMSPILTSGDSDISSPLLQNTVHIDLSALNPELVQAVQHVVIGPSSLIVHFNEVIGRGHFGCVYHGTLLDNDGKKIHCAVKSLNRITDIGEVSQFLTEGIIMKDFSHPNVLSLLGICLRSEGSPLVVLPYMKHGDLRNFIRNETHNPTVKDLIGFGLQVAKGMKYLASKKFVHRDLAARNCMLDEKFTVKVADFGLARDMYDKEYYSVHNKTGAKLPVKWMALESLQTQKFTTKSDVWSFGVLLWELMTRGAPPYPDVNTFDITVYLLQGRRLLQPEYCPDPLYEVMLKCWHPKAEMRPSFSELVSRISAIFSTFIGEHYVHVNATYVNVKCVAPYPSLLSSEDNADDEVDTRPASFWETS
# Experiment Notes: HGFR continuous-coupled spectrophotometric assay
# Format: biochemical
# Condition Set: at 50 nM; Table 5, library procedure 40; read-out: % inhibition (percent c-MET inhibition)
Output t for inhibition at 0.05 µM not less than 60%; output f otherwise.

q: Does the reported inhibition at 0.05 µM for CC(Oc1cc(-c2ccc(C(=O)NCCc3ccc(O)cc3)cc2)cnc1N)c1c(Cl)ccc(F)c1Cl (stereo not shown) fall at or above the 60% mark?
a: t

q: Item CC(Oc1cc(-c2ccc(C(=O)NCCCN3CCCCC3C)cc2)cnc1N)c1c(Cl)ccc(F)c1Cl (stereo not shown) with inhibition at 0.05 µM of 60% or above?
a: t

q: Would you say `C[C@H](Oc1cc(-c2ccc(C(=O)N[C@H](C)C3CCCCC3)cc2)cnc1N)c1c(Cl)ccc(F)c1Cl` shows inhibition at 0.05 µM at minimum 60%?
a: f

q: Answer whether inhibition at 0.05 µM of CC(Oc1cc(-c2ccc(C(=O)Nc3ccc(-n4ccnc4)cc3)cc2)cnc1N)c1c(Cl)ccc(F)c1Cl (stereo not shown) is greater than or equal to 60%.
a: t

q: Please check the record CCN(C)C(=O)c1ccc(-c2cnc(N)c(OC(C)c3c(Cl)ccc(F)c3Cl)c2)cc1 (stereo not shown) and state if its inhibition at 0.05 µM is at or above 60%.
a: f

q: // inclusive: inhibition at 0.05 µM at least 60%? input: CC(Oc1cc(-c2ccc(C(=O)NCCCN3CCN(C)CC3)cc2)cnc1N)c1c(Cl)ccc(F)c1Cl (stereo not shown)
a: t

q: Identify whether the reported inhibition at 0.05 µM of the following compound is 60% or greater: CCOC(=O)C1CCN(C(=O)c2ccc(-c3cnc(N)c(OC(C)c4c(Cl)ccc(F)c4Cl)c3)cc2)CC1 (stereo not shown)
a: f

The origin of these recorded values is patent US20050009840A1.
